Target: VLA-4 (Homo sapiens, UniProt P05556+P13612)
Construct: host or cells: Jurkat clone E6-1
Sequence (P13612 34-1032): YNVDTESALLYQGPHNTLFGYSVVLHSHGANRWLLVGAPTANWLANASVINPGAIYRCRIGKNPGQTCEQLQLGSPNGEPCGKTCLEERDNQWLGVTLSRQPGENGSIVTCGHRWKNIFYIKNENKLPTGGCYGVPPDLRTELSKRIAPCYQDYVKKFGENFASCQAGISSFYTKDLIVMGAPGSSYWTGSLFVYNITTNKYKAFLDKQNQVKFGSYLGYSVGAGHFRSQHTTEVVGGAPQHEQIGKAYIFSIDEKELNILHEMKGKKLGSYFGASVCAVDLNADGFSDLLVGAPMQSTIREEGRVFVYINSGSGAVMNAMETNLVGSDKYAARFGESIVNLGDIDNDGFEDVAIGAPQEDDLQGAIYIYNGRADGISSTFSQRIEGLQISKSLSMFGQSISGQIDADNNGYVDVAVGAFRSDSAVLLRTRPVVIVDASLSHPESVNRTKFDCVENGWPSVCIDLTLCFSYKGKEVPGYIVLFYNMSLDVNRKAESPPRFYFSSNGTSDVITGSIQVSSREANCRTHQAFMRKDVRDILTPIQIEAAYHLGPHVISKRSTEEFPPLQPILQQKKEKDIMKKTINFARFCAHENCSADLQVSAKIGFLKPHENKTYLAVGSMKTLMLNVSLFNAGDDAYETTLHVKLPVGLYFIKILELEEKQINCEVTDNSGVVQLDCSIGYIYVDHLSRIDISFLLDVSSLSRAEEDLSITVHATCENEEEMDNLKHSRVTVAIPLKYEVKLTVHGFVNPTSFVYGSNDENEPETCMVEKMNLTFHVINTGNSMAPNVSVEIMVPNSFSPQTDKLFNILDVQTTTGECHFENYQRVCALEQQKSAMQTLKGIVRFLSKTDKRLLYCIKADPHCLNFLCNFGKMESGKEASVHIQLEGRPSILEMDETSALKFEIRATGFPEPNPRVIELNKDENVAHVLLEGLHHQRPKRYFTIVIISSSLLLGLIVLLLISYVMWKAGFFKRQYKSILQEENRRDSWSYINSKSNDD
Sequence (P05556 21-798): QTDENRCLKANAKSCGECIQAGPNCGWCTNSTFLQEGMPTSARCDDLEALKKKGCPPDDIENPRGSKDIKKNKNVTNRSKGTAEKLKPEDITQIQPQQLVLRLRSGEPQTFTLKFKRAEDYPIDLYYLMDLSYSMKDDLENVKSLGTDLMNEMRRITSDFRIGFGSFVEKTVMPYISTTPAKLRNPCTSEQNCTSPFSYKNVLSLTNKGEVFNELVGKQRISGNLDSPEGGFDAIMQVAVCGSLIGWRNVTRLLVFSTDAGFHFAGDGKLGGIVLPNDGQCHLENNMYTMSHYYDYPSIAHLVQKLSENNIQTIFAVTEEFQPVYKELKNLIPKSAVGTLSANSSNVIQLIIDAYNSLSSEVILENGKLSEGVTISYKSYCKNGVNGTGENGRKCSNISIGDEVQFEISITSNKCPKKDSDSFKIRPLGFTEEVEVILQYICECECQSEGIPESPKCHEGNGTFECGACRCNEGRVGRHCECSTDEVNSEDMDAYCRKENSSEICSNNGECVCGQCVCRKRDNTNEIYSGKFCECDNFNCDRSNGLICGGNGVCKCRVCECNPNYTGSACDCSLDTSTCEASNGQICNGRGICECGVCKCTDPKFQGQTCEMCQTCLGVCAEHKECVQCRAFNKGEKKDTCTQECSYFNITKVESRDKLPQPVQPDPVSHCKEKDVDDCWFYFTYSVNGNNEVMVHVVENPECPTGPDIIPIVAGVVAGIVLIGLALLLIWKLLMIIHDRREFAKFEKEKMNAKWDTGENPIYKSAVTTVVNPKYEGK
Experiment: Adhesion of Jurkat cells to immobilized VCAM-1 (domains 1-3)
Type: cell-based
Conditions: adhesion of CFSE-labeled Jurkat cells to recombinant human VCAM-1 (domains 1-3) coated plates; compounds as yielded by solid phase synthesis, purity about 40-90%; read-out: IC50
Procedure: In Vitro Assay: Adhesion of Jurkat Cells to Immobilized VCAM-1 (Domains 1-3). Preparation of Fluorescence Labeled Jurkat Cells: […] Complementary DNA (cDNA) encoding 7-domain form of VCAM-1 (GenBank accession #M60335) was obtained using Rapid-Screen™ cDNA library panels (OriGene Technologies, Inc) at Takara Gene Analysis Center (Shiga, Japan). […] The recombinant virus was amplified by infection to High-Five™ insect cells for 5-6 days, and virus titer was determined by plaque assay. […]
pIC50: −log10 of the molar value.
property: pIC50

Answered examples (2):
Ask: Given the entry O=C(N[C@@H](Cc1ccc(-c2ccc(Cl)cc2Cl)cc1)C(=O)O)C1CCCN(C(=O)c2ccccc2Cl)C1 (stereo partly shown) [Example 1.4] , report its measured pIC50.
Result: 5.70 to 6.30

Ask: I have this compound here, O=C(N[C@@H](Cc1ccc(NC(=O)N2CCc3ccccc3C2)cc1)C(=O)O)C1CCCN(S(=O)(=O)c2cccs2)C1 (stereo partly shown) [Example 4.33] , and I need its recorded pIC50.
Result: ≥ 6.30

More entries:
Ask: State the recorded pIC50 for this entry: O=C(N[C@@H](Cc1ccc(-c2cc(Cl)ccc2Cl)cc1)C(=O)O)C1CCCN(c2ncnc(N3CCOCC3)c2F)C1 (stereo partly shown) [Example 2.3]
Result: ≥ 6.30

Ask: Would you kindly share the measured pIC50 for Cc1ccc(S(=O)(=O)N2CCCC(C(=O)N[C@@H](Cc3ccc(NC(=O)N4CCN(C(c5ccccc5)c5ccccc5)CC4)cc3)C(=O)O)C2)cc1 (stereo partly shown) [Example 4.35] ?
Result: 5.70 to 6.30

Ask: pIC50 for COc1ccccc1-c1ccc(C[C@H](NC(=O)C2CCCN(c3ncnc(NCCc4c[nH]cn4)c3F)C2)C(=O)O)cc1 (stereo partly shown) [Example 5.3] ?
Result: 5.00 to 5.70

###

Listing of entries alongside the reported pIC50.
Biological target: VLA-4 (Homo sapiens, UniProt P05556+P13612)
Construct: host or cells: Jurkat clone E6-1
Assay: Adhesion of Jurkat cells to immobilized VCAM-1 (domains 1-3)
Type: cell-based
Conditions: adhesion of CFSE-labeled Jurkat cells to recombinant human VCAM-1 (domains 1-3) coated plates; compounds as yielded by solid phase synthesis, purity about 40-90%; read-out: IC50
pIC50: −log10 of the molar value.

Example results:
Ask: Any idea what pIC50 was measured for O=C(N[C@@H](Cc1ccc(NC(=O)N2CCOCC2)cc1)C(=O)O)C1CCCN(c2ncnc(NCc3ccccn3)c2F)C1 (stereo partly drawn) ?
Result: 5.70 to 6.30

Ask: So what does the record say about pIC50 for COc1ccccc1NC(=O)N1CCCC(C(=O)N[C@H](Cc2ccc(NC(=O)N3CCN(c4ccccc4)CC3)cc2)C(=O)O)C1 (stereo partly drawn) ?
Result: 5.70 to 6.30

Consider the additional compound presented here.
Ask: // lookup pIC50 for CN1CCN(C(=O)Nc2ccc(C[C@H](NC(=O)C3CCCN(C(=O)c4ccc(OC(F)(F)F)cc4)C3)C(=O)O)cc2)CC1 (stereo partly drawn)
Result: 5.70 to 6.30
